Overview of recorded melting point for various molecules

>  <MOLECULE>
Cc1nc(-c2nc(=O)c3ccccc3s2)cs1

>  <melting point>
219 to 220 °C

$$$$
>  <MOLECULE>
COc1ccc(CS(=O)c2cc(OC)c(OC)c(OC)c2)cc1 (stereo not drawn)

>  <melting point>
103 to 105 °C

$$$$
>  <MOLECULE>
Nc1ncnc2c1c(-c1cccc(F)c1)nn2Cc1oc2ccccc2c(=O)c1-c1ccccc1

>  <melting point>
244 to 247 °C

$$$$
>  <MOLECULE>
Nc1nnc(-c2ccccc2Cl)c(-c2ccccc2Cl)n1

>  <melting point>
240 to 242 °C

$$$$
>  <MOLECULE>
CC(C)(O)c1ccc(CNC(=O)c2cccnc2Oc2ccc3nonc3c2)cc1

>  <melting point>
149 to 151 °C

$$$$
>  <MOLECULE>
Nc1nc2cc(Br)ccc2c2c1nc(CNC(=O)C1CC1)n2CC1CCOCC1

>  <melting point>
240 °C

$$$$
>  <MOLECULE>
FC(F)(F)c1ccc(Cl)c(-c2cccn3nc(Cl)nc23)c1

>  <melting point>
156 to 158 °C

$$$$
>  <MOLECULE>
O=C(O)C(F)c1ccc(Cl)cc1 (stereo not drawn)

>  <melting point>
66 to 68 °C

$$$$
>  <MOLECULE>
CC(C)(Cc1c(Cc2ccccc2)c2cc(OCc3ccc4ccccc4n3)ccc2n1Cc1ccc(Cl)cc1)C(=O)O

>  <melting point>
178 °C

$$$$
>  <MOLECULE>
CC(C)(C)OC(=O)Nc1cc(COC2CCCCO2)c(-c2ccc(F)cc2)cc1N (stereo not drawn)

>  <melting point>
139 to 142 °C

$$$$
>  <MOLECULE>
C#Cc1ccc(C2CCC(C3CCC(CCC)CC3)CC2)cc1 (stereo not drawn)

>  <melting point>
71 °C

$$$$
>  <MOLECULE>
COc1ccc2cccc(C(=O)CNC(C)=O)c2c1

>  <melting point>
122 to 124 °C

$$$$
>  <MOLECULE>
O=C(NC1CC=CC1)OCc1ccccc1

>  <melting point>
56 to 57 °C

$$$$
>  <MOLECULE>
CC(C)Oc1ccc(C(=O)O)c(Cl)n1

>  <melting point>
173 to 174 °C

$$$$
>  <MOLECULE>
CCCCOc1ncc(-c2ccco2)cc1-c1nc2c(CC)n(CCOC)nc2c(=O)[nH]1

>  <melting point>
154 to 155 °C

$$$$
>  <MOLECULE>
NS(=O)(=O)c1cccc(-c2cccc(-c3nc(-c4ccc(C(F)(F)F)c(F)c4)cc(C(F)(F)F)n3)c2)c1

>  <melting point>
228 °C

$$$$
>  <MOLECULE>
O=C1c2ccccc2C(=O)N1C1CCCn2c1nc(-c1ccncc1)cc2=O (racemic)

>  <melting point>
211 to 213 °C

$$$$
>  <MOLECULE>
N#CC1=C(c2ccccc2)Nc2n[nH]cc2C1c1ccccc1Cl (stereo not drawn)

>  <melting point>
158 °C

$$$$
>  <MOLECULE>
N#Cc1cc(C(=O)c2ccccc2)ccc1O

>  <melting point>
185 to 186 °C

$$$$
>  <MOLECULE>
CCNc1nc(C#N)c(C#N)nc1-c1cccc(Br)c1

>  <melting point>
127 to 128 °C

$$$$
>  <MOLECULE>
N#Cc1ccccc1Cn1ccc(OCc2ccc(F)cc2F)c(Br)c1=O

>  <melting point>
194 to 197 °C

$$$$
>  <MOLECULE>
CCCCCCCCN1CC(C(=O)OC)N(S(=O)(=O)c2ccc(NC(=O)c3ccc(Cl)cc3)cc2)CC1=O (stereo not drawn)

>  <melting point>
171 to 173 °C

$$$$
>  <MOLECULE>
C[C@]1(CN2CCN(S(=O)(=O)CCCc3ccc(Cl)cc3)CC2)Cn2cc([N+](=O)[O-])nc2O1

>  <melting point>
150 to 151 °C

$$$$
>  <MOLECULE>
O=C(Oc1ccccc1OC(=O)c1cc(O)c(O)c(O)c1)c1cc(O)c(O)c(O)c1

>  <melting point>
210 °C

$$$$
>  <MOLECULE>
Cc1cc(-c2ccccc2)nn2cnnc12

>  <melting point>
150 to 151 °C

$$$$
>  <MOLECULE>
CCN(CC)C(=O)N1CCN(c2nc(-c3ccccc3)cs2)CC1

>  <melting point>
76 to 77 °C

$$$$
>  <MOLECULE>
Cc1nc2ccc3c(c2nc1C)C(=O)c1ccccc1C3=O

>  <melting point>
> 400 °C

$$$$
>  <MOLECULE>
COc1ccc(N2CCN(c3c(C)c(C)c4c(c3C)C(c3ccc(F)cc3)C(C)(C)O4)CC2)cc1 (stereo not drawn)

>  <melting point>
139 to 141 °C

$$$$
>  <MOLECULE>
O=C(NCc1ncccn1)c1cnc(N2CCC[C@H]2CO)nc1NCc1cccc(Cl)c1

>  <melting point>
153 to 156 °C

$$$$
>  <MOLECULE>
CCCNc1cc(NS(=O)(=O)c2ccc(N)cc2)nc(NCCC)n1

>  <melting point>
211 to 215 °C

$$$$
>  <MOLECULE>
Cc1cc(C=Cc2ccccc2O)on1

>  <melting point>
236 to 238 °C

$$$$
>  <MOLECULE>
COc1ccc(CS[C@@H]2C[C@@H](C(=O)NN)N(S(=O)(=O)c3ccc4ccccc4c3)C2)cc1

>  <melting point>
130 °C

$$$$
>  <MOLECULE>
CC1(C)C=C(c2ccccn2)c2cc(C(F)(F)F)ccc2OC1

>  <melting point>
90 °C

$$$$
